B1: LINE1-full (parent)
chain: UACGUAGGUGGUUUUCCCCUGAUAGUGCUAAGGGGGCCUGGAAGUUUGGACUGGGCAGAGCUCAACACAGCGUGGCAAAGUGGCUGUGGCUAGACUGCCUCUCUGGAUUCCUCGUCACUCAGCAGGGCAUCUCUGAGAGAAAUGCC

Variants of: B1
Experiment: self-cleavage, relative activity (ratio to wild type); higher = more cleavage; in vitro, sequencing; the parent is a self-cleaving ribozyme
just bin them by self-cleavage: category 1 (below 0.5), category 2 (0.5 to below 1), category 3 (1 or more)

- VARIANT_IDENTIFIER: "G21U G127A"
  ASSIGNED_CATEGORY: "category 3"
- VARIANT_IDENTIFIER: "A94U U112C"
  ASSIGNED_CATEGORY: "category 1"
- VARIANT_IDENTIFIER: "U87A U132A"
  ASSIGNED_CATEGORY: "category 1"
- VARIANT_IDENTIFIER: "U73A G139A"
  ASSIGNED_CATEGORY: "category 3"
- VARIANT_IDENTIFIER: "A30G A129C"
  ASSIGNED_CATEGORY: "category 1"
- VARIANT_IDENTIFIER: "U9C U12C"
  ASSIGNED_CATEGORY: "category 3"
- VARIANT_IDENTIFIER: "U1C A136G"
  ASSIGNED_CATEGORY: "category 3"
- VARIANT_IDENTIFIER: "U14A U39A"
  ASSIGNED_CATEGORY: "category 2"
- VARIANT_IDENTIFIER: "G36U A69G"
  ASSIGNED_CATEGORY: "category 1"
- VARIANT_IDENTIFIER: "U102A A140U"
  ASSIGNED_CATEGORY: "category 3"
- VARIANT_IDENTIFIER: "G27A G144A"
  ASSIGNED_CATEGORY: "category 3"
- VARIANT_IDENTIFIER: "U46A C71A"
  ASSIGNED_CATEGORY: "category 1"
- VARIANT_IDENTIFIER: "G53U A77G"
  ASSIGNED_CATEGORY: "category 3"
- VARIANT_IDENTIFIER: "C103A"
  ASSIGNED_CATEGORY: "category 3"
- VARIANT_IDENTIFIER: "C3U A31U"
  ASSIGNED_CATEGORY: "category 1"
- VARIANT_IDENTIFIER: "U91C A117U"
  ASSIGNED_CATEGORY: "category 2"
- VARIANT_IDENTIFIER: "C3U U87C"
  ASSIGNED_CATEGORY: "category 1"
- VARIANT_IDENTIFIER: "A22G A43U"
  ASSIGNED_CATEGORY: "category 2"
- VARIANT_IDENTIFIER: "A31G A59U"
  ASSIGNED_CATEGORY: "category 1"
- VARIANT_IDENTIFIER: "U26C G34A"
  ASSIGNED_CATEGORY: "category 3"
- VARIANT_IDENTIFIER: "U104A A121U"
  ASSIGNED_CATEGORY: "category 3"
- VARIANT_IDENTIFIER: "U9C A141G"
  ASSIGNED_CATEGORY: "category 3"
- VARIANT_IDENTIFIER: "U12C A64U"
  ASSIGNED_CATEGORY: "category 3"
- VARIANT_IDENTIFIER: "G72A A121U"
  ASSIGNED_CATEGORY: "category 3"
- VARIANT_IDENTIFIER: "G34U C63A"
  ASSIGNED_CATEGORY: "category 1"
- VARIANT_IDENTIFIER: "G25A C76U"
  ASSIGNED_CATEGORY: "category 3"
- VARIANT_IDENTIFIER: "C3U A129G"
  ASSIGNED_CATEGORY: "category 3"
- VARIANT_IDENTIFIER: "U1C C51U"
  ASSIGNED_CATEGORY: "category 2"
- VARIANT_IDENTIFIER: "U47A C71U"
  ASSIGNED_CATEGORY: "category 2"
- VARIANT_IDENTIFIER: "U9C A94G"
  ASSIGNED_CATEGORY: "category 2"
- VARIANT_IDENTIFIER: "U104C U108C"
  ASSIGNED_CATEGORY: "category 3"
- VARIANT_IDENTIFIER: "C16A A129U"
  ASSIGNED_CATEGORY: "category 3"
- VARIANT_IDENTIFIER: "A77G A140U"
  ASSIGNED_CATEGORY: "category 3"
- VARIANT_IDENTIFIER: "A31G U119C"
  ASSIGNED_CATEGORY: "category 3"
- VARIANT_IDENTIFIER: "U26A U47G"
  ASSIGNED_CATEGORY: "category 3"
- VARIANT_IDENTIFIER: "U9A A31G"
  ASSIGNED_CATEGORY: "category 3"
- VARIANT_IDENTIFIER: "A57U C98G"
  ASSIGNED_CATEGORY: "category 1"
- VARIANT_IDENTIFIER: "U9G U81C"
  ASSIGNED_CATEGORY: "category 2"
- VARIANT_IDENTIFIER: "U62C C71U"
  ASSIGNED_CATEGORY: "category 1"
- VARIANT_IDENTIFIER: "A24U A129G"
  ASSIGNED_CATEGORY: "category 2"
- VARIANT_IDENTIFIER: "U9C U52A"
  ASSIGNED_CATEGORY: "category 3"
- VARIANT_IDENTIFIER: "A77G A138U"
  ASSIGNED_CATEGORY: "category 3"
- VARIANT_IDENTIFIER: "U115G C145U"
  ASSIGNED_CATEGORY: "category 3"
- VARIANT_IDENTIFIER: "U62C A67G"
  ASSIGNED_CATEGORY: "category 1"
- VARIANT_IDENTIFIER: "A64U U130A"
  ASSIGNED_CATEGORY: "category 2"
- VARIANT_IDENTIFIER: "G70A A107G"
  ASSIGNED_CATEGORY: "category 1"
- VARIANT_IDENTIFIER: "U13A C145U"
  ASSIGNED_CATEGORY: "category 3"
- VARIANT_IDENTIFIER: "A94G A107U"
  ASSIGNED_CATEGORY: "category 1"
- VARIANT_IDENTIFIER: "G4A"
  ASSIGNED_CATEGORY: "category 2"
- VARIANT_IDENTIFIER: "G7U A124G"
  ASSIGNED_CATEGORY: "category 3"
- VARIANT_IDENTIFIER: "A94U U115C"
  ASSIGNED_CATEGORY: "category 1"
- VARIANT_IDENTIFIER: "A50G A94U"
  ASSIGNED_CATEGORY: "category 1"
- VARIANT_IDENTIFIER: "C3U U130C"
  ASSIGNED_CATEGORY: "category 1"
- VARIANT_IDENTIFIER: "U9C G97A"
  ASSIGNED_CATEGORY: "category 1"
- VARIANT_IDENTIFIER: "U15C G122A"
  ASSIGNED_CATEGORY: "category 3"
- VARIANT_IDENTIFIER: "U81A U109C"
  ASSIGNED_CATEGORY: "category 3"
- VARIANT_IDENTIFIER: "C71U G144A"
  ASSIGNED_CATEGORY: "category 3"
- VARIANT_IDENTIFIER: "U45A U85C"
  ASSIGNED_CATEGORY: "category 1"
- VARIANT_IDENTIFIER: "U15C U73G"
  ASSIGNED_CATEGORY: "category 3"
- VARIANT_IDENTIFIER: "C63A U119C"
  ASSIGNED_CATEGORY: "category 1"
- VARIANT_IDENTIFIER: "A57U A121G"
  ASSIGNED_CATEGORY: "category 1"
- VARIANT_IDENTIFIER: "C19G A31G"
  ASSIGNED_CATEGORY: "category 2"
- VARIANT_IDENTIFIER: "A42G G58A"
  ASSIGNED_CATEGORY: "category 1"
- VARIANT_IDENTIFIER: "A77U U108C"
  ASSIGNED_CATEGORY: "category 3"
- VARIANT_IDENTIFIER: "A42U U62C"
  ASSIGNED_CATEGORY: "category 1"
- VARIANT_IDENTIFIER: "G21U U134A"
  ASSIGNED_CATEGORY: "category 3"
- VARIANT_IDENTIFIER: "U109C U130C"
  ASSIGNED_CATEGORY: "category 3"
- VARIANT_IDENTIFIER: "G60A G139U"
  ASSIGNED_CATEGORY: "category 1"
- VARIANT_IDENTIFIER: "U104C C120U"
  ASSIGNED_CATEGORY: "category 3"
- VARIANT_IDENTIFIER: "U9A U62A"
  ASSIGNED_CATEGORY: "category 1"
- VARIANT_IDENTIFIER: "U26C C61U"
  ASSIGNED_CATEGORY: "category 1"
- VARIANT_IDENTIFIER: "C113U C123U"
  ASSIGNED_CATEGORY: "category 3"
- VARIANT_IDENTIFIER: "G54U U119C"
  ASSIGNED_CATEGORY: "category 3"
- VARIANT_IDENTIFIER: "U87A U130C"
  ASSIGNED_CATEGORY: "category 1"
- VARIANT_IDENTIFIER: "A64G U81A"
  ASSIGNED_CATEGORY: "category 1"
- VARIANT_IDENTIFIER: "U26A U102G"
  ASSIGNED_CATEGORY: "category 1"
- VARIANT_IDENTIFIER: "A64U G127C"
  ASSIGNED_CATEGORY: "category 2"
- VARIANT_IDENTIFIER: "C17U"
  ASSIGNED_CATEGORY: "category 3"
- VARIANT_IDENTIFIER: "U12C C101A"
  ASSIGNED_CATEGORY: "category 3"
- VARIANT_IDENTIFIER: "U29C A67G"
  ASSIGNED_CATEGORY: "category 2"
- VARIANT_IDENTIFIER: "U14C C128U"
  ASSIGNED_CATEGORY: "category 1"
- VARIANT_IDENTIFIER: "U12A G32C"
  ASSIGNED_CATEGORY: "category 2"
- VARIANT_IDENTIFIER: "G72U U73A"
  ASSIGNED_CATEGORY: "category 3"
- VARIANT_IDENTIFIER: "A24G"
  ASSIGNED_CATEGORY: "category 3"
- VARIANT_IDENTIFIER: "A24G G53U"
  ASSIGNED_CATEGORY: "category 3"
- VARIANT_IDENTIFIER: "U45C A121G"
  ASSIGNED_CATEGORY: "category 3"
- VARIANT_IDENTIFIER: "A22U A78G"
  ASSIGNED_CATEGORY: "category 3"
- VARIANT_IDENTIFIER: "U13C A117U"
  ASSIGNED_CATEGORY: "category 3"
